Each recorded value in this set is attributed to ChEMBL document CHEMBL1122643.

- System under test: Alpha-2 adrenergic receptor (Mus musculus) (UniProt P30545+Q01338+Q01337)
- Test: Ability to antagonize the inhibitory effect of clonidine on the mouse vas deferens is the presynaptic alpha-2 adrenergic receptor antagonist potency relative to idazoxan = 1.
- Assay type: functional, tissue-based
Endpoint label: Antagonist potency
Give bare numbers.

Fc1ccc2c(c1)CC(C1=NCCN1)O2 (stereo not drawn) ... 1.07
Cl.c1ccc2c(c1)CC(C1=NCCN1)O2 (stereo not drawn) ... 1.7
c1ccc2c(c1)CC(C1=NCCN1)CO2 (stereo not drawn) ... 0.01
Oc1cccc2c1OC(C1=NCCN1)C2 (stereo not drawn) ... 0.04

Hi team, please reply with Antagonist potency for each item in this list.
1. c1ccc2c(c1)CC(C1=NCCN1)S2 (stereo not drawn)
2. Cc1cccc2c1CC(C1=NCCN1)O2 (stereo not drawn)
3. Oc1ccc2c(c1)OC(C1=NCCN1)C2 (stereo not drawn)
4. Cl.Clc1cccc2c1OC(C1=NCCN1)C2 (stereo not drawn)

[0.1, 0.1, 0.04, 0.64]

----------
Exercise: for every item that follows, state its recorded Agonist potency.
- System under test: Adrenergic receptor alpha-1 (Rattus norvegicus) (UniProt P15823+P23944+P43140)
- Test: Agonism in vitro at Alpha-1 adrenoceptor determined in rat anococcygeus preparation.
- Assay type: functional
One number for each entry.

Some compounds with recorded Agonist potency:
Cc1ccc(C)c2c1CC(C1=NCCN1)O2 (stereo not drawn) ... 0.5
Clc1cc(Cl)c2c(c1)CC(C1=NCCN1)O2 (stereo not drawn) ... 0.14

--- query ---
Data request, read-out Agonist potency, for `c1ccc2c(c1)OC(C1=NCCN1)O2`
0.005

----------
- System under test: Adrenergic receptor alpha-1 (Rattus norvegicus) (UniProt P15823+P23944+P43140)
- Test: In vitro inhibition of the contractile effect of phenylephrine on the isolated rat anococcygeus; potency relative to idazoxan.
- Assay type: functional
// Not met strictly below 0.7 in Antagonist potency; Met otherwise

Completed entries (count: 5):
COc1ccc2c(c1)OC(C1=NCCN1)C2 (configuration not stated) ... Not met
CC1(C2=NCCN2)Cc2ccccc2O1 (configuration not stated) ... Not met
CCCCCC1(C2=NCCN2)Cc2ccccc2O1.Cl (configuration not stated) ... Met
Fc1ccc2c(c1)CC(C1=NCCN1)O2 (configuration not stated) ... Met
Cl.Clc1cccc2c1OC(C1=NCCN1)C2 (configuration not stated) ... Met

Pending molecule:
// inclusive: Antagonist potency at least 0.7? input: Cc1cc2c(cc1C)OC(C1=NCCN1)C2 (configuration not stated)
Met

----------
- System under test: Alpha-2 adrenergic receptor (Mus musculus) (UniProt P30545+Q01338+Q01337)
- Test: Presynaptic alpha-2 adrenergic receptor from mouse vas deferens agonistic activity relative to clonidine = 1.
- Format: functional, tissue-based
Active and inactive are the calls of the source. The rule behind the calls is not given here.
Endpoint label: Agonist potency

Fc1ccc2c(c1)CC(C1=NCCN1)O2 (configuration not stated) ... inactive
c1ccc2c(c1)OC(C1=NCCN1)O2 ... inactive
CC1c2ccccc2OC1C1=NCCN1 (configuration not stated) ... inactive
Cc1cccc2c1OC(C1=NCCN1)C2.Cl (configuration not stated) ... inactive
CCC1(C2=NCCN2)Cc2ccccc2O1.Cl (configuration not stated) [EFAROXAN HYDROCHLORIDE] ... inactive
c1ccc(CCC2(C3=NCCN3)Cc3ccccc3O2)cc1 (configuration not stated) ... inactive

--- query ---
Data request, read-out Agonist potency, for Cc1ccc2c(c1)OC(C1=NCCN1)C2 (configuration not stated)
inactive

----------
- System under test: Adrenergic receptor alpha-1 (Rattus norvegicus) (UniProt P15823+P23944+P43140)
- Test: Agonism in vitro at Alpha-1 adrenoceptor determined in rat anococcygeus preparation.
- Type: functional
// not met strictly below 0.2 in Agonist potency; met otherwise

Completed entries (count: 5):
Cc1cc(C)c2c(c1)CC(C1=NCCN1)O2 (centres undefined) ... not met
Brc1ccc2c(c1)CC(C1=NCCN1)O2 (centres undefined) ... not met
Cl.c1ccc2c(c1)CC(C1=NCCN1)O2 (centres undefined) ... not met
Oc1cccc2c1OC(C1=NCCN1)C2 (centres undefined) ... met
CC(=O)c1ccc2c(c1)CC(C1=NCCN1)O2 (centres undefined) ... not met

// inclusive: Agonist potency at least 0.2? input: COc1cccc2c1OC(C1=NCCN1)C2 (centres undefined)
met

// inclusive: Agonist potency at least 0.2? input: c1ccc2c(c1)OCCC(C1=NCCN1)O2 (centres undefined)
not met

// inclusive: Agonist potency at least 0.2? input: Clc1ccc2c(c1Cl)OC(C1=NCCN1)C2 (centres undefined)
not met

// inclusive: Agonist potency at least 0.2? input: Cc1cccc2c1CC(C1=NCCN1)O2 (centres undefined)
met

// inclusive: Agonist potency at least 0.2? input: `CC1(C2=NCCN2)Oc2ccccc2O1`
not met

----------
- System under test: Adrenergic receptor alpha-1 (Rattus norvegicus) (UniProt P15823+P23944+P43140)
- Test: In vitro inhibition of the contractile effect of phenylephrine on the isolated rat anococcygeus; potency relative to idazoxan.
- Assay type: functional
Mark rule met for Antagonist potency under 0.3, rule not met if at or over.

Completed entries (count: 5):
COc1ccc2c(c1)CC(C1=NCCN1)O2 (configuration not stated) ... rule met
CC1c2ccccc2OC1C1=NCCN1 (configuration not stated) ... rule met
c1ccc2c(c1)CC(C1=NCCN1)CO2 (configuration not stated) ... rule not met
c1ccc2c(c1)CCC(C1=NCCN1)O2 (configuration not stated) ... rule not met
CCCC1(C2=NCCN2)Cc2ccccc2O1.Cl (configuration not stated) ... rule not met

Pending molecule:
Strictly below 0.3: is that where Antagonist potency of Cl.Clc1ccc2c(c1)CC(C1=NCCN1)O2 (configuration not stated) sits?
rule not met

----------
- System under test: Adrenergic receptor alpha-1 (Rattus norvegicus, UniProt P15823+P23944+P43140)
- Test: Alpha-1 adrenergic receptor […] in rat anococcygeus assay
- Type: functional
Exercise: for every item that follows, state its recorded pA2.
Answers are plain numbers.

Some molecules with recorded pA2:
CCC1(C2=NCCN2)Cc2ccccc2O1.Cl (centres undefined) [EFAROXAN HYDROCHLORIDE] ... 5.91
Cl.Clc1ccc2c(c1)CC(C1=NCCN1)O2 (centres undefined) ... 7.05
CCCC1(C2=NCCN2)Cc2ccccc2O1.Cl (centres undefined) ... 6.39

--- query ---
Item CCCCCC1(C2=NCCN2)Cc2ccccc2O1.Cl (centres undefined) with Adrenergic receptor alpha-1 (Rattus norvegicus, UniProt P15823+P23944+P43140) - pA2?
6.47

----------
Exercise: for every item that follows, state its recorded Antagonist potency.
- System under test: Alpha-2 adrenergic receptor (Mus musculus) (UniProt P30545+Q01338+Q01337)
- Test: Ability to antagonize the inhibitory effect of clonidine on the mouse vas deferens is the presynaptic alpha-2 adrenergic receptor antagonist potency relative to idazoxan = 1.
- Format: functional, tissue-based
Numbers only.

Some molecules with recorded Antagonist potency:
Cc1cccc2c1OC(C1=NCCN1)C2.Cl (centres undefined) ... 1.6
Cc1cc2c(cc1C)OC(C1=NCCN1)C2 (centres undefined) ... 0.7
c1ccc2c(c1)CCC(C1=NCCN1)O2 (centres undefined) ... 0.01
CC(=O)c1ccc2c(c1)CC(C1=NCCN1)O2 (centres undefined) ... 0.003
Cc1cc(C)c2c(c1)CC(C1=NCCN1)O2 (centres undefined) ... 0.3
c1ccc2c(c1)OCCC(C1=NCCN1)O2 (centres undefined) ... 0.04

Hi team, please reply with Antagonist potency for each item in this list.
1. c1ccc2oc(C3=NCCN3)cc2c1
2. CCC1(C2=NCCN2)Cc2ccccc2O1.Cl (centres undefined) [EFAROXAN HYDROCHLORIDE]

1: 0.01; 2: 1.8

Hi team, please reply with Antagonist potency for each item in this list.
1. COc1ccc2c(c1)CC(C1=NCCN1)O2 (centres undefined)
2. c1ccc2c(c1)OC(C1=NCCN1)O2
3. c1ccc(CCC2(C3=NCCN3)Cc3ccccc3O2)cc1 (centres undefined)
4. Cc1ccc(C)c2c1CC(C1=NCCN1)O2 (centres undefined)
5. Cl.Clc1ccc2c(c1)CC(C1=NCCN1)O2 (centres undefined)
6. COc1cccc2c1OC(C1=NCCN1)C2 (centres undefined)
7. COc1ccc2c(c1)OC(C1=NCCN1)C2 (centres undefined)

[0.12, 0.001, 0.07, 0.03, 0.53, 0.07, 0.07]

Hi team, please reply with Antagonist potency for each item in this list.
1. Clc1ccc2c(c1Cl)OC(C1=NCCN1)C2 (centres undefined)
2. CC1(C2=NCCN2)Cc2ccccc2O1 (centres undefined)
3. CC1c2ccccc2OC1C1=NCCN1 (centres undefined)
4. Brc1ccc2c(c1)CC(C1=NCCN1)O2 (centres undefined)
5. Cc1cc(Cl)cc2c1OC(C1=NCCN1)C2 (centres undefined)

[0.12, 0.25, 0.03, 0.2, 0.5]

Hi team, please reply with Antagonist potency for each item in this list.
1. CCCCCC1(C2=NCCN2)Cc2ccccc2O1.Cl (centres undefined)
2. CCCC1(C2=NCCN2)Cc2ccccc2O1.Cl (centres undefined)
3. Clc1cccc2c1CC(C1=NCCN1)O2 (centres undefined)
4. Oc1ccc2c(c1)CC(C1=NCCN1)O2 (centres undefined)
5. Cc1ccc2c(c1)CC(C1=NCCN1)O2 (centres undefined)
6. Cc1ccc2c(c1)OC(C1=NCCN1)C2 (centres undefined)
7. CC1(C2=NCCN2)Oc2ccccc2O1
8. Clc1cc(Cl)c2c(c1)CC(C1=NCCN1)O2 (centres undefined)

[0.44, 1.9, 2, 0.02, 1, 0.46, 0.001, 0.06]

Data request, read-out Antagonist potency, for `c1ccc2sc(C3=NCCN3)cc2c1`
0.001
